test system: Acinetobacter baumannii; assay: Antibacterial activity against Acinetobacter baumannii ATCC 19606 (CO-ADD:GN_034); MIC in CAMBH media using NBS plates, by Resazurin F(560/590); type: functional; details: Concentration 20 uM, ASSAY_TEST Inhibition of Bacterial Growth, detection method Resazurin, Fluorescence (ex560/em590), MEDIA CAMHB, plate type 384well, CORNING #3640, time 18 hr
MEASUREMENT_LABEL: Inhibition

[
  {
    "MOLECULE": "O=C(O)/C(Cc1c[nH]nn1)=N\\O",
    "SYSTEM_TESTED": "Acinetobacter baumannii",
    "READING": "-10.75%"
  },
  {
    "MOLECULE": "c1ccc2c(c1)Nc1ccncc1S2",
    "SYSTEM_TESTED": "Acinetobacter baumannii",
    "READING": "-7.03%"
  },
  {
    "MOLECULE": "CC1CC=C(O)C12OCC(C)(C)CO2 (stereo unspecified)",
    "SYSTEM_TESTED": "Acinetobacter baumannii",
    "READING": "-6.5%"
  },
  {
    "MOLECULE": "O=c1[nH]cc(Cl)cc1Cl",
    "SYSTEM_TESTED": "Acinetobacter baumannii",
    "READING": "-19.78%"
  },
  {
    "MOLECULE": "Cc1ccncc1C(N)=O",
    "SYSTEM_TESTED": "Acinetobacter baumannii",
    "READING": "-6.4%"
  },
  {
    "MOLECULE": "CSc1nc2nc(C(O)c3ccccc3)nc-2c[nH]1 (stereo unspecified)",
    "SYSTEM_TESTED": "Acinetobacter baumannii",
    "READING": "6.4%"
  },
  {
    "MOLECULE": "Cc1cccc(N=C(S)Nc2cccc(C)n2)n1",
    "SYSTEM_TESTED": "Acinetobacter baumannii",
    "READING": "12.82%"
  },
  {
    "MOLECULE": "CCOC(=O)c1c[nH]nc1O",
    "SYSTEM_TESTED": "Acinetobacter baumannii",
    "READING": "-6.35%"
  },
  {
    "MOLECULE": "Nc1cc2c3c(cccc3c1)C(=O)N(CCN1CCCC1)C2=O",
    "SYSTEM_TESTED": "Acinetobacter baumannii",
    "READING": "9.76%"
  },
  {
    "MOLECULE": "CCC/C(C)=C/c1ccc(CC)cn1",
    "SYSTEM_TESTED": "Acinetobacter baumannii",
    "READING": "-4.3%"
  },
  {
    "MOLECULE": "O=C1COc2c1ccc(O)c2O",
    "SYSTEM_TESTED": "Acinetobacter baumannii",
    "READING": "-23.14%"
  },
  {
    "MOLECULE": "COc1ccc(C2C3=C(COC3=O)Oc3cc4c(cc32)OCO4)cc1OC (stereo unspecified)",
    "SYSTEM_TESTED": "Acinetobacter baumannii",
    "READING": "-8.11%"
  },
  {
    "MOLECULE": "O=c1nc2onnc2c(/C=N\\O)[nH]1",
    "SYSTEM_TESTED": "Acinetobacter baumannii",
    "READING": "-9.04%"
  },
  {
    "MOLECULE": "Cc1nc(N)nc(Cl)c1CCC1OCCO1",
    "SYSTEM_TESTED": "Acinetobacter baumannii",
    "READING": "-8.91%"
  },
  {
    "MOLECULE": "Oc1ccnc2c(Cl)cccc12",
    "SYSTEM_TESTED": "Acinetobacter baumannii",
    "READING": "2.93%"
  },
  {
    "MOLECULE": "Sc1nccn1-c1ccccc1Cl",
    "SYSTEM_TESTED": "Acinetobacter baumannii",
    "READING": "14.25%"
  },
  {
    "MOLECULE": "Sc1ncnc2c1ncn2C1CCCC1",
    "SYSTEM_TESTED": "Acinetobacter baumannii",
    "READING": "-2.05%"
  },
  {
    "MOLECULE": "O=[N+]([O-])c1ccc2c3ccccc3[s+]([O-])c2c1 (stereo unspecified)",
    "SYSTEM_TESTED": "Acinetobacter baumannii",
    "READING": "5.87%"
  },
  {
    "MOLECULE": "CC1(C)CCCC2(C)C(OCCO)=CC(=O)C=C12 (stereo unspecified)",
    "SYSTEM_TESTED": "Acinetobacter baumannii",
    "READING": "8.39%"
  },
  {
    "MOLECULE": "COc1ccccc1N1C(=O)CC(Sc2ccccc2N)C1=O (stereo unspecified)",
    "SYSTEM_TESTED": "Acinetobacter baumannii",
    "READING": "1.84%"
  },
  {
    "MOLECULE": "CCN(CC)CCNc1c(C)cc(CO)c(Cl)c1C.O=S(=O)(O)NC1CCCCC1",
    "SYSTEM_TESTED": "Acinetobacter baumannii",
    "READING": "-16.4%"
  }
]
